The values you see were collected from BindingDB's records for doi:10.7270/Q2319T8T.

- experimental target: UniProtKB Q13285
- Sequence (Q13285 whole entry, the tested form may be a part): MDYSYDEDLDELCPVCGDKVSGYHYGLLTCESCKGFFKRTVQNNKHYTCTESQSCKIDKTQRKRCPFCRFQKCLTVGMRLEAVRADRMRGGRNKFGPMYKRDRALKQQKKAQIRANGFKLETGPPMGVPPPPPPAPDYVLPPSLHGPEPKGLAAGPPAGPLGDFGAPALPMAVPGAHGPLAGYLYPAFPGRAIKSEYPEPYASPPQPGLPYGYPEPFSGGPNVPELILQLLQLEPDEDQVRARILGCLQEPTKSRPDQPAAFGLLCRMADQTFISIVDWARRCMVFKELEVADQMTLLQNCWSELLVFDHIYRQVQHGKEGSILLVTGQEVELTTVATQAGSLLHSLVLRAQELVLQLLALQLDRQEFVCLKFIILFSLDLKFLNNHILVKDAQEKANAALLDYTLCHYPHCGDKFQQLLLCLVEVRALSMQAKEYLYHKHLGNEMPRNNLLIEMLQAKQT
- method notes: blockers of SF-1 LBD reporter transcription – cell-based, CHO-K1, Gal4-SF-1 LBD, luciferase luminescence, dose response (AID 600)
Parameter: IC50. Scope: all listed entries.
readout label: IC50 (µM)

molecule=Cc1ccc(-c2cnc(NC(=O)CCC(=O)N3CCCCC3)n2C)cc1 experimental_target="UniProtKB Q13285" readout_label=IC50 units_of_measure=µM sign_qualifier=> measured=99
molecule=Cc1ccc(-c2nc(-c3ccccn3)no2)cc1Cl experimental_target="UniProtKB Q13285" readout_label=IC50 units_of_measure=µM sign_qualifier=> measured=1.22
molecule=COc1cc([C@@H]2c3cc4c(cc3[C@H](O)[C@H]3COC(=O)[C@H]23)OCO4)cc(OC)c1OC experimental_target="UniProtKB Q13285" readout_label=IC50 units_of_measure=µM sign_qualifier== measured=0.0454
molecule=COc1ccc(O)c(C(=O)CC(=O)c2ccc(F)cc2)c1 experimental_target="UniProtKB Q13285" readout_label=IC50 units_of_measure=µM sign_qualifier=> measured=11
molecule=Cc1cc(C(=O)Nc2cccc(C(=O)O)c2)oc1C experimental_target="UniProtKB Q13285" readout_label=IC50 units_of_measure=µM sign_qualifier== measured=3.13
molecule=CC(C)c1ccc2oc(-c3cc(N)ccc3O)nc2c1 experimental_target="UniProtKB Q13285" readout_label=IC50 units_of_measure=µM sign_qualifier== measured=10.6
molecule=COc1ccc(C=Nn2nnc3ccccc32)cc1 experimental_target="UniProtKB Q13285" readout_label=IC50 units_of_measure=µM sign_qualifier=> measured=3.67
molecule=O=C(c1ccc2c3c(cccc13)C(=O)N(O)C2=O)N1CCCCC1 experimental_target="UniProtKB Q13285" readout_label=IC50 units_of_measure=µM sign_qualifier== measured=1.92
molecule="CN(C)c1ccc2c(c1)OC(=N)C(C#N)C2c1cccc(F)c1 (stereo not given)" experimental_target="UniProtKB Q13285" readout_label=IC50 units_of_measure=µM sign_qualifier== measured=10.9
molecule=CCc1c(C)nc2ncnn2c1NCCc1ccc(OC)cc1 experimental_target="UniProtKB Q13285" readout_label=IC50 units_of_measure=µM sign_qualifier=> measured=11
molecule=COc1ccc2[nH]c3nc(SC(C)C)nnc3c2c1 experimental_target="UniProtKB Q13285" readout_label=IC50 units_of_measure=µM sign_qualifier== measured=9.03
molecule=CCc1ccc2oc(-c3ccc(N)cc3)nc2c1 experimental_target="UniProtKB Q13285" readout_label=IC50 units_of_measure=µM sign_qualifier=> measured=3.67
molecule=O=S1(=O)C=C(Sc2nc3ccccc3s2)c2ccccc21 experimental_target="UniProtKB Q13285" readout_label=IC50 units_of_measure=µM sign_qualifier== measured=0.713
molecule="COc1ccc(C(=O)Nn2c(SCC(=O)NCC3CCCO3)nc3ccccc3c2=O)cc1 (stereo not given)" experimental_target="UniProtKB Q13285" readout_label=IC50 units_of_measure=µM sign_qualifier== measured=4.29
molecule=Cc1nnc(Sc2nc(Sc3nnc(C)s3)nc(N3CCN(C)CC3)n2)s1 experimental_target="UniProtKB Q13285" readout_label=IC50 units_of_measure=µM sign_qualifier== measured=2.64
